All values here come from PubChem BioAssay (NCI).

# System: SNB-75 CNS
# Test Method Notes: NCI tumour cell line growth inhibition, 48 h; in the data active = GI50 below about 0.43 µM; inactive = the rest
// one of active, inactive, no free text

Compound Structure String | Subject Of Test | Class
CC[C@@]1(OC(=O)CN)C(=O)OCc2c1cc1n(c2=O)Cc2cc3cc(N)ccc3nc2-1 | SNB-75 CNS | active
Oc1ccc2ccccc2c1-c1nnc(CCCCCCCCc2nnc(-c3c(O)ccc4ccccc34)o2)o1 | SNB-75 CNS | inactive
C[C@@H](NC(=O)Cc1cc(F)cc(F)c1)C(=O)N[C@@]1(C)N=C(c2ccccc2)c2ccccc2N(C)C1=O | SNB-75 CNS | inactive
C/C(=C(/c1ccc(O)cc1)c1ccc(OCCN2CCCC2)cc1)c1ccccc1 | SNB-75 CNS | inactive

Here is another compound to look at.
Q. Short answer needed: outcome of this test for CC(C)OP(=O)(CP(=O)(OC(C)C)OC(C)C)OC(C)C.[CH3][Sn]([Br])([Br])[Br] ?
A. inactive

---

# System: MDA-MB-435
Pick one and only one: TRUE (active), FALSE (inactive)

Use the examples below as a reference point.
Compound | Class
COC(=O)[C@H](Cc1ccccc1)NC(=O)c1csc([C@@H](C[C@H](C(C)C)N(C)C(=O)[C@@H](NC(=O)[C@H]2CCCCN2C)C2CC2)OC(C)=O)n1 | TRUE
Cc1ccc(C2=Nc3c(N)ncnc3NC(c3cccc(Nc4ccnc5cc(C(F)(F)F)ccc45)c3)C2)cc1 (stereo unspecified) | FALSE
COc1cc(C2C3=C(COC3=O)N(CCO)c3cc4c(cc32)CCC4)cc(OC)c1O (stereo unspecified) | TRUE
COc1ccc2nc3ccc(OC)cc3c(SCCCN)c2c1 | FALSE
CC[C@]12C=CCN3CC[C@]4(C(=C(C(=O)OC)C1)Nc1cc(O)ccc14)[C@@H]32 | FALSE

Q. What outcome does the record of this test show for Cc1nnc([S-])s1.[Au+].c1ccc([PH+](c2ccccc2)c2ccccc2)cc1 ?
A. FALSE

Q. Given O=C1C=C(Nc2cccc(Br)c2)c2ccccc2C1=O , state the outcome it received in this test.
A. TRUE

Q. Each compound tested received a call. Report the one for COc1ccccc1Cn1cc2c(c1)-c1oncc1CC2 .
A. TRUE

Q. # fetch the recorded call for O=C1OC(c2ccc(O)cc2)(c2ccc(O)cc2)c2cccc3cccc1c23 here
A. FALSE

Q. Recorded call for COc1ccccc1C(=O)c1cnc(NC2CCN(S(C)(=O)=O)CC2)nc1N ?
A. FALSE

Q. Which result was noted for this compound in the test: c1ccc2c(c1)nc(NCCN1CCNCC1)c1c3ccccc3[nH]c21
A. FALSE

---

# Test system: SK-MEL-5 melanoma
# Test Method Notes: NCI tumour cell line growth inhibition, 48 h
Each entry gets NOT MET if its TGI stays under 4 µM, and MET if its TGI is 4 µM or above.

Q. Given the entry COC(=O)C(C)N1C(=O)c2ccccc2I1OC(C)=O (stereo not given) , answer whether its TGI meets or surpasses 4 µM.
A. MET

Q. Hello, I need to know if CC1(C)N=C(N)N=C(N)N1c1ccc(OCC(=O)Nc2cccc(S(=O)(=O)F)c2)c(Cl)c1 has measured TGI not below 4 µM. Thanks!
A. MET

---

# maps each entry to its TGI
# Tested on: TK-10 renal
# Test Method Notes: NCI tumour cell line growth inhibition, 48 h

Compound | Readout Value
O=C1CCSSCCC(=O)Nc2ccccc2N1 | > 100 µM
COc1ccccc1C1C(C#N)=C(N)OC2=C1C(=O)CCC2 (stereo not given) | > 100 µM
CC1CN=C(c2cccc(OCc3ccc(COc4cccc(C5=NCC(C)N5)c4)cc3)c2)N1 (stereo not given) | > 100 µM

Q. What TGI appears in the records for this compound with TK-10 renal? O=c1c(Cc2ccc(Cl)cc2)nnc2sc(-c3ccc([N+](=O)[O-])cc3)nn12
A. 68.4 µM

Q. Request body: readout TGI, system TK-10 renal, query Cc1ccc(NC(=O)CCC(=O)C2CC(=O)CC/C2=N\NC(=O)c2cc3ccccc3cc2O)cc1C (stereo not given) . Return the value.
A. > 100 µM

---

# Tested on: HL-60(TB) leukemia
# Test Method Notes: NCI tumour cell line growth inhibition, 48 h
Measurement Kind: TGI

Molecule | Readout Value
CC(=O)N[C@@H](Cc1ccc(O)cn1)C(=O)NCc1ccc2c(c1)OCO2 | > 100 µM
COc1ccccc1C1C(C#N)=C(N)OC2=C1C(=O)CCC2 (stereo not given) | > 100 µM
COc1cc(C(c2cc3c(cc2O)OCO3)N2CCCC2)cc(OC)c1OC (stereo not given) | 6.06 µM
O=C(c1ccccc1F)c1c(NCc2ccccc2)c(=O)c1=O | > 100 µM
COC(=O)C(C)N1C(=O)c2ccccc2I1OC(C)=O (stereo not given) | > 100 µM

Q. Endpoint output: TGI of COc1cc(N=Nc2cccc(S(=O)(=O)O)c2)c(C)cc1N=Nc1ccc(/C=C/c2ccc(N=[N+]([O-])c3ccc(/C=C/c4ccc(N=Nc5cc(C)c(N=Nc6cccc(S(=O)(=O)O)c6)cc5OC)cc4)c(S(=O)(=O)O)c3)cc2S(=O)(=O)O)cc1 . Value?
A. > 100 µM

Q. Form field: reported TGI of Cc1cc(NS(=O)(=O)c2ccc(Nc3c4ccccc4nc4c(C(=O)NCCN(C)C)ccc(Cl)c34)cc2)no1
A. 5.58 µM

Q. Any idea what its TGI is? The molecule is COC(=O)/C(=N\NC(=O)c1ccccc1O)C(C#N)c1ccc(Cl)cc1 (stereo not given)
A. > 100 µM

---

# System: T-47D breast
# Test Method Notes: NCI tumour cell line growth inhibition, 48 h
Measurement Kind: GI50

Take a look at these entries with their results.
Compound | GI50
O=C(/C=C/N1CCN(c2cccc(C(F)(F)F)c2)CC1)c1ccc(Cl)cc1Cl | 82.8 µM
CCCCCCCCCCCCCCCC[N+]1(CC)CCCC1 | 0.528 µM
COC(=O)c1cc(Nc2ccc(O)c3c2C(=O)c2c([N+](=O)[O-])ccc(O)c2C3=O)cc(C(=O)OC)c1 | 4.78 µM
COC(=O)C(C)N1C(=O)c2ccccc2I1OC(C)=O (stereo unspecified) | 21 µM
c1ccc2c(c1)nc(NCCN1CCNCC1)c1c3ccccc3[nH]c21 | 0.903 µM

For the next question, use this compound.
Q. Please give the measured GI50 for this compound: Oc1ccc2ccccc2c1-c1nnc(CCCCCCCCc2nnc(-c3c(O)ccc4ccccc34)o2)o1
A. 1.67 µM

---

# Test system: HL-60(TB) leukemia
# Test Method Notes: NCI tumour cell line growth inhibition, 48 h
Documented GI50 across a set of compounds

Compound | Subject Of Test | Measurement Kind | Readout Value
CN1CCCC1c1cccnc1.O=C(O)c1ccccc1O.O=C([O-])c1ccccc1[OH2+].O=C([O-])c1ccccc1[OH2+].O=C([O-])c1ccccc1[OH2+].[Mn+2] (stereo not given) | HL-60(TB) leukemia | GI50 | > 100000 nM
O=C1c2c(O)cccc2C(C(=O)CCCCC(=O)C2c3cccc(O)c3C(=O)c3c(O)cccc32)c2cccc(O)c21 | HL-60(TB) leukemia | GI50 | 744 nM
COC(=O)C(C)N1C(=O)c2ccccc2I1OC(C)=O (stereo not given) | HL-60(TB) leukemia | GI50 | 47200 nM
COc1ccccc1Cn1cc2c(c1)-c1oncc1CC2 | HL-60(TB) leukemia | GI50 | 268 nM
CC1Cc2c(N(C)C)ncnc2N(C)c2ccc(Cl)cc21 (stereo not given) | HL-60(TB) leukemia | GI50 | 2810 nM
CCN(CC)CCC(=O)Nc1ccc(Cn2nnc3c2C(=O)c2nnn(Cc4ccc(NC(=O)CCN(CC)CC)cc4)c2C3=O)cc1 | HL-60(TB) leukemia | GI50 | 228 nM
CC[C@]12C=CCN3CC[C@]4(C(=C(C(=O)OC)C1)Nc1cc(O)ccc14)[C@@H]32 | HL-60(TB) leukemia | GI50 | 25800 nM
Cc1ccc(NCSc2ccc(Cl)cc2)cc1 | HL-60(TB) leukemia | GI50 | 2450 nM
O=C(N[C@@H]1CCCc2ccccc21)[C@H](CCC(=O)N1CCN(C2CCCCC2)CC1)N1C(=O)[C@@H](N2C(=O)OC[C@@H]2c2ccccc2)[C@H]1/C=C/c1ccccc1 | HL-60(TB) leukemia | GI50 | 2100 nM
COC(=O)[C@H](Cc1ccccc1)NC(=O)c1csc([C@@H](C[C@H](C(C)C)N(C)C(=O)[C@@H](NC(=O)[C@H]2CCCCN2C)C2CC2)OC(C)=O)n1 | HL-60(TB) leukemia | GI50 | 13.7 nM

Q. Name the reported GI50 value associated with the compound COc1ccc2nc3ccc(OC)cc3c(SCCCN)c2c1
A. 4340 nM

Q. GI50 for CN1C(=O)c2cc(Cl)nc3c(NC(=O)c4cccc(Cl)c4)c(Cl)c(NC(=O)c4cccc(Cl)c4)c1c23 ?
A. 2170 nM

Q. Tell me the measured GI50 of COc1cc2c3c(n(CCCNCCO)c(=O)c2cc1OC)-c1cc2c(cc1C3=O)OCO2 , please.
A. < 27.7 nM

Q. Sample COC(=O)c1cc(Nc2ccc(O)c3c2C(=O)c2c([N+](=O)[O-])ccc(O)c2C3=O)cc(C(=O)OC)c1 — what was its GI50?
A. 18400 nM

Q. Would you kindly share the measured GI50 for O=C1C=C(Nc2cccc(Br)c2)c2ccccc2C1=O ?
A. 9560 nM
